Measured values drawn from PubChem BioAssay (NCI) for this set.

A collection of compounds and their measured growth inhibition
assay: NCI Yeast Anticancer Drug Screen. Data for the mec2-1 strain (AID 157); details: S. cerevisiae mec2-1 strain, at 5.0 µM (retest, dose inferred, filed as 0.5), hits give high values
The panel holds about 79,000 compounds, 15% with a hit somewhere; the sample as a whole holds those more often. Active and inactive are the calls of the source. Cut-off read from the data, not from the text of the source: active = growth inhibition above about 70%; inactive = the rest.

CC(Br)c1ccccc1 (stereo unspecified)    1% (inactive)
CCCCN(CCCC)CC(C(C)=O)C(c1ccccc1)c1c(O)c2ccccc2oc1=O (stereo unspecified)    25% (inactive)
CCN(CCCl)CCCCNc1c2ccccc2nc2ccc(OC)cc12    26% (inactive)
COc1ccc2c(c1O)C13CCN(C)C(C2)C12C=CC(=O)C3c1c(O)ccc(O)c12 (stereo unspecified)    13% (inactive)

**Q:** Please list growth inhibition recorded for the compound "COc1ccc(OC)c(C=O)c1"
**A:** 0% (inactive)

**Q:** State its growth inhibition for this compound: "CCS(=O)(=O)[O][Sn]([CH2]C)([CH2]C)[O]S(=O)(=O)CC"
**A:** 6% (inactive)

----------
test: NCI Yeast Anticancer Drug Screen. Data for the cln2 rad14 strain (AID 165);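 note: 0% = growth equal to vehicle treated cultures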; conditions: S. cerevisiae cln2 rad14 strain, at 50.0 µM, hits give high values
About 79,000 compounds went through this panel and 15% of them were active in at least one assay; those are over-represented in the sample as a whole.
assay-readout: growth inhibition (%)
Numeric answer only, unit % assumed.

Cc1cc(C)[n+](CCOc2ccc(/C(=C(/Cl)c3ccccc3)c3ccccc3)cc2)c(C)c1    91.7
Nc1ccc(Cl)cc1C(=O)c1ccccc1    71.4
CCC(=O)C(CCN1CCC2(CCCc3ccccc32)CC1)(c1ccccc1)c1ccccc1    87.2
CC1(C)N([O-])[N+](=O)C1(C)Br (stereo unspecified)    19.5
CN(C)CC1CC2C3CC=C4CC(O)CCC4(C)C3CCC2(C)C1=O (stereo unspecified)    29.1

**Q:** Give growth inhibition for the following molecule: "CCCCCCCCC(=O)[O][Hg][c]1ccccc1"
**A:** 99.3

**Q:** # return recorded growth inhibition for entry C/C(=N\N)C(CN1CCCCC1)C(c1ccccc1)c1c(O)c2ccccc2oc1=O (stereo unspecified)
**A:** 74

**Q:** Indicate its recorded growth inhibition; the molecule in question is "c1ccc(NC2=NCCN2)nc1"
**A:** 0.35

**Q:** Report growth inhibition, nothing else, for this molecule: "O=[N+]([O-])c1ccc(C=Cc2ccc(C(F)(F)F)cc2)cc1.[C-]#[O+].[C-]#[O+].[C-]#[O+].[Cr]"
**A:** 26.6

**Q:** Specify reported growth inhibition for the molecule shown: "C[C@H](N)C(=O)N[C@@H]1[C@H]2C(=C(O)C[C@@H](O)[C@@H]2O)C(=O)O[C@]1(C)C(Cl)Cl"
**A:** 44.9

**Q:** Given the molecule "O=S(=O)([O-])[O-].[OH3+].[OH3+].[OH3+].[Ru+2].c1ccccc1" , write its reported growth inhibition.
**A:** 89.6

----------
assay: NCI Yeast Anticancer Drug Screen. Data for the wt2 strain (AID 169);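 note: 0% = growth of vehicle-treated yeast cultures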; conditions: S. cerevisiae wt2 strain growth inhibition; at 100.0 µM; hits give high values
This is part of a sample that, as a whole, favours compounds with a hit. Of some 79,000 tested, about 15% had one in any assay. Activity calls are given as the source filed them. Rule as the data show it: active = growth inhibition above about 70%; inactive = the rest.
assay-readout: growth inhibition

Recorded growth inhibition, per entry:
O=C1NC(=S)NC(=O)C1=C/C=C/c1ccccc1    98% (active)
CC(C)(C)c1cc([N+](=O)[O-])cc([N+](=O)[O-])c1O    47% (inactive)
CC1CC(C)CC(C)C(O)/C(C#N)=C/C=C/CC(C2CCCC2C(=O)O)OC(=O)CC(O)C(C)C1 (stereo unspecified)    98% (active)
CCCN(CCC)c1c([N+](=O)[O-])cc(S(N)(=O)=O)cc1[N+](=O)[O-]    -2% (inactive)
Cc1nc2ccccc2cc1C[N+]12CN3CN(CN(C3)C1)C2    46% (inactive)

**Q:** Quickly give me recorded growth inhibition for "O=[N+]([O-])c1cc(S(=O)(=O)F)ccc1Cl"
**A:** 98% (active)
